molecular target: pooled human IgG
metric name: Enzyme Activity Endpoint Assay: scIgG (ng/µL)
Value expressed in ng/µL; do not type the unit.

According to the records, this protein PRT-24 (protein) MANQEIRYSEVTPYHVTSVWTKGVTPPANFTQGEDVFHAPYVANQGWYDITKTFNGKDDLLCGAATAGNMLHWWFDQNKDQIERYLKEHPEKQKINFNGEQMFDVKEAIDTKDSQTDSKLFEYFKEKAFPYLSTKHLGVFPDHVLDMFINGYRLSLTNHGPTPVKEGSKDPRGGIFDAVFTRGDQSKLLTSRHDFKEKTLKEISDLIKKELTEGKALGLSHTYANVRINHVINLWGADFDSNGNLKAIYVTDSDSNASIGMKKYFVGVNSAGKVAISAKEIKEDNIGAQVLGLFTLSTGQDIWNQTN displays Enzyme Activity Endpoint Assay: scIgG of 16
